- Test system: SNB-75 CNS
- assayInfo: NCI-60 one-dose screen, 48 h
- conditionNotes: 10 µM unless noted
The panel holds about 83,000 compounds, 20% with a hit somewhere; the sample as a whole holds those more often. The source made the active and inactive calls. Rule for the calls: active = growth percent below 10; inactive = the rest.
Labels: active, inactive

CCOC(=O)c1cn2ncnc(Oc3ccc(NC(=O)NCCN(C)C)c(Cl)c3)c2c1C | inactive
[O-][n+]1c2ccccc2[n+]([O-])c2c3ccccc3[nH]c21 | inactive
Cn1cc(C(=O)c2nc(-c3cn(C)c4ccc(F)cc34)no2)c2cc(F)ccc21 | inactive
N#Cc1c(-c2ccccc2)nc(SCC(=O)Nc2nc(-c3ccc(Cl)cc3)cs2)[nH]c1=O | inactive
O=C(Oc1cccc2ccccc12)Oc1cccc2ccccc12 | inactive
S=C(c1cccs1)N1CCN(c2cccc(Cl)c2)CC1 | inactive
COc1cc2oc(-c3ccc(O)cc3)cc(=O)c2c(O)c1-c1c(OC)cc(O)c2c(=O)cc(-c3ccc(O)cc3)oc12 | active
Cc1ccc(C(C)C)cc1C(=O)C[n+]1ccccc1 | inactive
CCOC(=O)Nc1ccc(-c2nc(-c3cccc(OCCN4CCOCC4)c3)c(-c3ccnc(Br)c3)[nH]2)cc1 | active
NCCCNc1nc2ccccc2c2c(=O)c3cc(F)cc(Cl)c3sc12 | inactive
CCn1cnc2c1c(=O)[nH]c(=O)n2CC1CCC(CNS(=O)(=O)c2ccc(OC3CCOCC3)c(F)c2)CC1 (stereo unspecified) | active
O=C(Cc1ccc(F)c(Cl)c1)Nc1cc(C2(C(F)(F)F)CC2)nn1CC1CCCCC1 | active
Cc1cc2nc3ccc(N=Nc4ccc(N(C)C)cc4)cc3n(-c3ccccc3)c-2cc1=N | active
C/C(=C\C(=O)c1ccc(Cl)cc1)c1ccc(Cl)cc1 | inactive
Cc1cc2[nH]c(=O)c3c4ncccc4cn3c2cc1C | inactive
CCc1ccc(Oc2c(-c3ccc(OCc4ccc(Cl)cc4)cc3O)nn(C)c2C(F)(F)F)cc1 | active
COc1ccc(-c2cnc3ccccc3n2)cc1 | inactive
NCCCNc1nc2ccccc2c2c(=O)c3cc(F)cc(F)c3sc12 | inactive
COc1ccc(-c2nnc(COc3ccc(Cl)cc3Cl)o2)cc1OC | active
CN1CCN(CC(=O)N2c3cccc4cccc(c34)N(C(=O)CN3CCN(C)CC3)C2c2cn(-c3ccccc3)nc2-c2cccc([N+](=O)[O-])c2)CC1 | inactive
COc1ccc(C2CC(c3ccc(Nc4ccnc5cc(Cl)ccc45)cc3)=NN2C=O)cc1 (stereo unspecified) | inactive

###

- Test system: U251 CNS
- assayInfo: NCI-60 one-dose screen, 48 h (100 = growth as untreated, 0 = no growth, -100 = all killed)
- conditionNotes: 10 µM unless noted
The panel holds about 83,000 compounds, 20% with a hit somewhere; the sample as a whole holds those more often.
Would you mind labelling by growth? At or over 80% is Fulfilled, under is Not fulfilled.

NCCCNc1nc2ccccc2c2c(=O)c3cccc(F)c3sc12 | Not fulfilled
c1ccc(Nc2cc(-c3cccnc3)[nH]n2)cc1 | Fulfilled
O=CN(SSN(C=O)C1CCCCC1)C1CCCCC1 | Fulfilled
C[C@]12CC[C@@H]3c4cc(OC(F)F)c(OS(N)(=O)=O)cc4CC[C@H]3[C@@H]1CC[C@@H]2O | Not fulfilled
COc1ccc(-c2ncnc3c2ncn3CC#CCCl)cc1 | Not fulfilled
COc1cc2cc(Oc3ccc(NC(=O)Nc4ccc(Cl)c(Cl)c4)cc3)c(C)nc2cc1OCCN1CCOCC1 | Fulfilled
Nc1ccccc1-c1cc2c(c3c1[nH]c1ccccc13)CCCCC2 | Fulfilled

These entries and their values trace back to PubChem BioAssay (NCI).
